target_or_system: BSA (Bos taurus, UniProt P02769)
Construct: purchased Millipore Sigma-Aldrich
Sequence (P02769 25-607): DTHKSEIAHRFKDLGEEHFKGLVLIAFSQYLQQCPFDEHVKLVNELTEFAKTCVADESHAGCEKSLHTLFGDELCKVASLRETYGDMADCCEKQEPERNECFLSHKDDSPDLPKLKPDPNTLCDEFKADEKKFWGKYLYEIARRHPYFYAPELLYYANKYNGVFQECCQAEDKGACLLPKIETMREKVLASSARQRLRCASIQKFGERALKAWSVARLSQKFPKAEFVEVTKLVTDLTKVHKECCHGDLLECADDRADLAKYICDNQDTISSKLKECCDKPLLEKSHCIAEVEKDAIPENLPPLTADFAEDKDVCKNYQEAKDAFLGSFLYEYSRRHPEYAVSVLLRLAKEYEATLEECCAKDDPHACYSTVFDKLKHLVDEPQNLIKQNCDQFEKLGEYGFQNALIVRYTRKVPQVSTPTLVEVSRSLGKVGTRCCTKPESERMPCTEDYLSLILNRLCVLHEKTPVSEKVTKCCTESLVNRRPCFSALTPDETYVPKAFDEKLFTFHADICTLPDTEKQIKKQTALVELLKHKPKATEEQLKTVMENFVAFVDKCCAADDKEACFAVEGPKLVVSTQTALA
experiment: Far-UV CD secondary structure of BSA (CONTIN-LL deconvolution)
Type: physicochemical, bovine
reported_conditions: 1.0 mg/mL BSA, 200 mM component, 25 °C
Attribute: Distorted Alpha Helix
Keep the answer to the number alone.

[[record]]
molecule = "CCCCn1cc[n+](C)c1.O=S(=O)([O-])C(F)(F)F [[C4C1Im][CF3SO3]]"
target_or_system = "BSA (Bos taurus, UniProt P02769)"
observed = 0.223

[[record]]
molecule = "C[N+](C)(C)CCO.C[N+](C)(C)CCO.O=P([O-])(O)O.O=P([O-])(O)O [[N1112(OH)][H2PO4]]"
target_or_system = "BSA (Bos taurus, UniProt P02769)"
observed = 0.202

[[record]]
molecule = "C[N+](C)(C)CCO.O=S(=O)([O-])C(F)(F)C(F)(F)C(F)(F)C(F)(F)F [[N1112(OH)][C4F9SO3]]"
target_or_system = "BSA (Bos taurus, UniProt P02769)"
observed = 0.207

[[record]]
molecule = "OC[C@H]1O[C@@](CO)(O[C@H]2O[C@H](CO)[C@@H](O)[C@H](O)[C@H]2O)[C@@H](O)[C@@H]1O [Sucrose, sucrose]"
target_or_system = "BSA (Bos taurus, UniProt P02769)"
observed = 0.216


## Input I'd like to know its Distorted Alpha Helix. The molecule in question is CCn1cc[n+](C)c1.O=S(=O)([O-])C(F)(F)C(F)(F)C(F)(F)C(F)(F)F
## Output 0.183

###

target_or_system: BSA (Bos taurus)
Construct: purchased Millipore Sigma-Aldrich
experiment: Far-UV CD secondary structure of BSA (CONTIN-LL deconvolution)
Format: physicochemical, bovine
reported_conditions: 1.0 mg/mL BSA, 25 mM component, 25 °C
Entry flag: TRUE if Regular Beta Sheet reaches 0.01; FALSE if it does not.

Answered cases to consult:
[[record]]
compound = "C[N+](C)(C)CCO.C[N+](C)(C)CCO.O=P([O-])(O)O.O=P([O-])(O)O [[N1112(OH)][H2PO4]]"
classification = "TRUE"

[[record]]
compound = "C[N+](C)(C)CCO.O=S(=O)([O-])C(F)(F)C(F)(F)C(F)(F)C(F)(F)F [[N1112(OH)][C4F9SO3]]"
classification = "FALSE"

[[record]]
compound = "CCCCn1cc[n+](C)c1.O=S(=O)([O-])C(F)(F)F [[C4C1Im][CF3SO3]]"
classification = "TRUE"

[[record]]
compound = "CCn1cc[n+](C)c1.O=S(=O)([O-])C(F)(F)C(F)(F)C(F)(F)C(F)(F)F"
classification = "TRUE"


## Input Check this compound for Regular Beta Sheet at or above 0.01: OC[C@H]1O[C@@](CO)(O[C@H]2O[C@H](CO)[C@@H](O)[C@H](O)[C@H]2O)[C@@H](O)[C@@H]1O
## Output FALSE

###

Attribute: ΔHvH
target_or_system: BSA (Bos taurus)
Construct: purchased Millipore Sigma-Aldrich
experiment: DSC thermal unfolding of BSA in water and aqueous solutions of ABS phase-forming components
Format: physicochemical, bovine
reported_conditions: 1.0 mg/mL BSA, 1 mM component
State just the number; it will be interpreted in kcal/mol.

[[record]]
compound = "CCn1cc[n+](C)c1.O=S(=O)([O-])C(F)(F)C(F)(F)C(F)(F)C(F)(F)F"
observed = 134.8

[[record]]
compound = "CCCCn1cc[n+](C)c1.O=S(=O)([O-])C(F)(F)F [[C4C1Im][CF3SO3]]"
observed = 102.2

[[record]]
compound = "C[N+](C)(C)CCO.C[N+](C)(C)CCO.O=P([O-])(O)O.O=P([O-])(O)O [[N1112(OH)][H2PO4]]"
observed = 183.3

[[record]]
compound = "C[N+](C)(C)CCO.O=S(=O)([O-])C(F)(F)C(F)(F)C(F)(F)C(F)(F)F [[N1112(OH)][C4F9SO3]]"
observed = 150


Please look at the following compound next.
## Input I'd like to know its ΔHvH. The compound in question is OC[C@H]1O[C@@](CO)(O[C@H]2O[C@H](CO)[C@@H](O)[C@H](O)[C@H]2O)[C@@H](O)[C@@H]1O [Sucrose, sucrose]
## Output 170.8
